Entry source: the supplement of paper PMC9170038

Recorded apparent KD of MS2 coat protein values for a group of sequences are listed next.
system: MS2 coat protein; experiment: apparent KD of MS2 coat protein; designed switch direction (-1 OFF switch, 1 ON switch): -1; higher = weaker reporter binding; conditions: Eterna round: R95; input ligand: FMN 200 uM
Only the number, expressed in nM, is required.

Answered cases to consult:
{"chain": "AGUACUGACACGUUGGUGUUAGUACAAUAAGCUUGUGACACAUGAGGAUCACCCAUGUCCUCAUAAGCUCGUCUUAU [salish99_TOv2_r2_094] (puzzle: Sensor v3, turn-off variant 2)", "readout-kind": "apparent KD of MS2 coat protein", "assay-value": 22}
{"chain": "UUUAUAAUUUCAAUCUUCGCCAACAAACUUACGCUGGCCACAUGAGGAUCACCCAUGUUUUUUGUUCGUUUUAUUCU [Veorenxere] (puzzle: Sensor v3, turn-off variant 2)", "readout-kind": "apparent KD of MS2 coat protein", "assay-value": 18.8}
{"chain": "ACCUCACAUGAGGAUCACCCAUGUCAGGAUAUGUACCUGGCCAAGACAAAAGCCAGAAGCAGAAGGGACUGCGG [Enrionerdi] (puzzle: Exclusion 1)", "readout-kind": "apparent KD of MS2 coat protein", "assay-value": 72.5}
{"chain": "AAUGAUGAUGUGAGGAUAUACAUAGUUAGAAAGUAGUAGAAGGCACAUGAGGAUCACCCAUGUAGAUGUAAGGU [JR_BME4_Sub001] (puzzle: Brourd's mod of Exclusion 4)", "readout-kind": "apparent KD of MS2 coat protein", "assay-value": 52.5}

Query block: // fetch apparent KD of MS2 coat protein for AAGUACCGUCACGAUAGUGAUGGUACAACAAGCAGUGAAACAUGAGGAUCACCCAUGUCCUCGAUUGCUCGUCUUAU [Sensor 3 - 80] (puzzle: Sensor v3, turn-off variant 2) ; system: MS2 coat protein
Result block: 67.7

---

tested on: K4 kissing-loop RNA reporter; assay: apparent KD of K4 kissing-loop reporter; higher = weaker reporter binding; settings: Eterna round: R107; input ligand: arginine 13.2 mM;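 further: bound reporter read as fluorescence of individual clusters on recovered sequencing chips by microscopy, with normalized cluster intensities fitted with a binding model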
Would you please tag the item 1 when its apparent KD of K4 kissing-loop reporter is 0.1 µM or above, and -1 when it is below?

Reference set (2 entries):
{"chain": "ACAUCGGUUGAGAGUGAUGUUCCUUGUGUUCGAGGACCGGUACGGCCGCCACUCGGGUAGAAAAUAAAAGAUGUGUUUGAUUUUU [BDazzled - #15 SS Tryptophan A]", "class": -1}
{"chain": "ACCAUCAAAGAUGGCCAGGACUCCGCUGAUACCAGAGUGAAAACACUCCCUUGGCAGCAGGUGAGUGAUGUUCACGAGUCCUGGA [Omel KL Theo A SS B v6]", "class": 1}

Query block: Would you say UUCUACGAGUGAUGUUCGUAGUGUAAUCGCUAGGAUAUCGUUUUUUCGAGAAGGAGCGUCGAAGUGAUACGAAAGUAUCGCUUCG [FMN A 13] shows apparent KD of K4 kissing-loop reporter at minimum 0.1 µM?
Result block: 1

Query block: Would you say ACCUGUAGUGAUGUUACUGGUGGUUAGGAAGGAGCGCCCGCGUGGGCAGGUAGGUCGCCUAAGCUAUGUGGGAAACCGCAUAUUG [#14 K4 Arginine A Same State] shows apparent KD of K4 kissing-loop reporter at minimum 0.1 µM?
Result block: -1

Query block: Would you say UGACUGGACUGAAGGAGCGCUAAAACUCCUAGUGAUGUUAGGAAAACGAGACAAAGUCUCGAGCAGGUAGGUCGCAGUCUAGUCU [ArgBS 21 #SwitchBubble #StaticStem] shows apparent KD of K4 kissing-loop reporter at minimum 0.1 µM?
Result block: 1

Query block: Would you say GAGCGGUGGAGGUUACCGCUAUUCUGAGAAGGAGCGCAGAUGACUGCAGGUAGGUCGCUUAGAGCUUGCAGUGAUGUUGCAAGUU [Edrirama] shows apparent KD of K4 kissing-loop reporter at minimum 0.1 µM?
Result block: 1

---

test system: MS2 coat protein; assay: apparent KD of MS2 coat protein; designed switch direction (-1 OFF switch, 1 ON switch): -1; higher = weaker reporter binding; details: input ligand: none
Would you please tag the item True when its apparent KD of MS2 coat protein is 50 nM or above, and False when it is below?

Reference set (4 entries):
{"chain": "UCAGACAUGAGGAUCACCCAUGUGUGACCCUCCUGUCUCAGUCAGGAUAUACUUUUUCAAACUUAGUAGAAGGGACAACAAAAC [Oronerused] (Eterna round: R96, puzzle: Exclusion NG 3)", "class": "True"}
{"chain": "UUUAAUUUAAUUAAGAUCACAUGAGGAUCACCCAUGUAUAUAUAGGAUAUCAGCUCGAUUAGAGCUGAGAAGGAUAUAUACAUA [ExNG3/4-A1] (Eterna round: R96, puzzle: Exclusion NG 3)", "class": "True"}
{"chain": "CCAUGUCCGGAGGAUAUGCGCAGACUUACUGCAGCAGAAGGUUGGACUUGAGGAUCACCCAAGUGACCAUUUGU [Esrebionra] (Eterna round: R97, puzzle: Exclusion 6)", "class": "False"}
{"chain": "ACGUACAAGCCGAUCCUAAACAUGAGGAUCACCCAUGUGCUCGUUUUGUAAAGUACUAUCACGAAAGUGAUAGUACA (Eterna round: R97, puzzle: Sensor, turn-off variant 1)", "class": "True"}

Query block: Would you say ACAUGAGGAUCACCCAUGUGAAAACAAUGGCUGACUUUGAGAUAGGAUAUUGGUGCAUAUCAAACCAAGAAGGGUCAUUACUGG [Deportation 92 - Jieux - Exclusion NG 3] (Eterna round: R96, puzzle: Exclusion NG 3) shows apparent KD of MS2 coat protein at minimum 50 nM?
Result block: False

---

Recorded apparent KD of MS2 coat protein values for a group of sequences are listed next.
tested on: MS2 coat protein; experiment: apparent KD of MS2 coat protein; designed switch direction (-1 OFF switch, 1 ON switch): 1; higher = weaker reporter binding; conditions: input ligand: microRNA oligo, concentration not stated
Only the number, expressed in µM, is required.

Answered cases to consult:
{"chain": "GUGGUCAGACAUGAGGAUCACCCAUGUGGAAUAAAUAAGGAAUAGGAUAUGGAAUAUAGGAUAUACCAGAAGGGUUGGUUGGUG (Eterna round: R96, puzzle: Same State NG 3)", "system-name": "MS2 coat protein", "readout-kind": "apparent KD of MS2 coat protein", "assay-value": 0.0734}
{"chain": "GUUACAUGAGGAUCACCCAUGUAUGUGUGGGAGUAAGUGUCUUAGGAUAUCUAGGAUUUAAUUUAAGAGAAGGAAGAUUGUUGU [JMF's solution 50] (Eterna round: R96, puzzle: Same State NG 3)", "system-name": "MS2 coat protein", "readout-kind": "apparent KD of MS2 coat protein", "assay-value": 0.0459}
{"chain": "GAAAAACAUGAGGAUCACCCAUGUGUAAACAAGGGAGGAUAUACAAAGACGUAAGUCAAAGUAGAAGGCCUAAAAG [Garnet 38] (Eterna round: R96, puzzle: Same State 1)", "system-name": "MS2 coat protein", "readout-kind": "apparent KD of MS2 coat protein", "assay-value": 0.0543}
{"chain": "UUUCGAUAGAUAGGAUAUCACUUUACAUGAGGAUCACCCAUGUUGGCUGUGCUGAUUAUUAAAACUGAGAAGGAUCUUGAUGAC [JR_SSNG2_Sub003] (Eterna round: R96, puzzle: Same State NG 2)", "system-name": "MS2 coat protein", "readout-kind": "apparent KD of MS2 coat protein", "assay-value": 0.022}
{"chain": "GGCCUGUAGACAGGAUAUGGGAAAGGAAGUGUACCAGAAGGGUCAAAGAUAUAGGUGGACAUGAGGAUCACCCAUGUAAUUAAC [PowerStrip SSNG 1.21] (Eterna round: R96, puzzle: Same State NG 1)", "system-name": "MS2 coat protein", "readout-kind": "apparent KD of MS2 coat protein", "assay-value": 0.0705}

Query block: Identify apparent KD of MS2 coat protein associated with the sequence GGAAUAUUUACAGGAUAUGAGUUGUAAAGUCGAUCAGAAGGGUAGGUGUUUUGCACGGUGUGUUACAUGAGGAUCACCCAUGUU [SameState NG1 #22] (Eterna round: R96, puzzle: Same State NG 1)
Result block: 0.0662

Query block: Identify apparent KD of MS2 coat protein associated with the sequence AUCCGGAAGCGAGGAUAUGCAGAGGAUCACCCUGCAGAAGGCGCGAUCGCGAGGAUAUGCAGAGGAUCACCCUGCAGAAGGCGC [pwkr ssNG DX.31] (Eterna round: R96, puzzle: Same State NG 1)
Result block: 0.0203

Query block: Identify apparent KD of MS2 coat protein associated with the sequence UCUAUUGUGGUAGGAUAUCUAGGAUAUGGGAAGAGCUAAGCUUGGAAGUCACUUCACCCAGAAGGAGAGAAGGACCACACACUU [pwkr ssNG2 2FMN + F9.8] (Eterna round: R96, puzzle: Same State NG 2)
Result block: 0.121

Query block: Identify apparent KD of MS2 coat protein associated with the sequence UUGAAGAAUUAAGGAUAUUGAAUACAUAUGUUUAACAUGAGGAUCACCCAUGUGGGUUGCGGUGUCGAGAAGGUAAAUUACUAG [JL SSNG2 1.50] (Eterna round: R96, puzzle: Same State NG 2)
Result block: 0.177
